# System under test: Muscarinic acetylcholine receptor M3 (Homo sapiens) (UniProt P20309)
# Sequence (P20309 whole entry, looked up): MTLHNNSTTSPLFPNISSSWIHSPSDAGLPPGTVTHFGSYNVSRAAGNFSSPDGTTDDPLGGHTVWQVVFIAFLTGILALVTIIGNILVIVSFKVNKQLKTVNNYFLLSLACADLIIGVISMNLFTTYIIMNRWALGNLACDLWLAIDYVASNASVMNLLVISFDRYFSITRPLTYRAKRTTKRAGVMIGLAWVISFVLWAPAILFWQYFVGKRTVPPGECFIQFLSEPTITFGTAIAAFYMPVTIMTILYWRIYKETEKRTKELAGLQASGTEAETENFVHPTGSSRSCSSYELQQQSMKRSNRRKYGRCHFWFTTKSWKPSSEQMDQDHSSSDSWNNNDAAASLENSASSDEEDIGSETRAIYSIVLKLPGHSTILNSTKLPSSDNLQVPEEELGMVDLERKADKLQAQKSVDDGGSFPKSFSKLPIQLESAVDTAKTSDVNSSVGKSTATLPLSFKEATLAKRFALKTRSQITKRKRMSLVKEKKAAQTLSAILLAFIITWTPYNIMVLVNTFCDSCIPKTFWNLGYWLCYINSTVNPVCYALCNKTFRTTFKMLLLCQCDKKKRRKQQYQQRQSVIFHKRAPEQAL
# Run description: Positive allosteric modulator activity at human muscarinic M3 receptor expressed in CHO cells assessed as effect on acetylcholine-induced intracellular calcium mobilization by FLIPR assay
# Format: functional, cell-based
Calls of active or inactive are those of the source. No cut-off for these calls is given here.

{"Molecule": "O=C(O)c1cn(Cc2ccc(-c3cccnc3)cc2)c2ccsc2c1=O", "System under test": "Muscarinic acetylcholine receptor M3 (Homo sapiens) (UniProt P20309)", "Activity": "inactive"}
{"Molecule": "O=C(O)c1cn(Cc2ccc(-c3ccccc3)cc2)c2ncccc2c1=O", "System under test": "Muscarinic acetylcholine receptor M3 (Homo sapiens) (UniProt P20309)", "Activity": "inactive"}
{"Molecule": "Cc1ccnn1-c1ccc(Cn2cc(C(=O)O)c(=O)c3cccnc32)cc1", "System under test": "Muscarinic acetylcholine receptor M3 (Homo sapiens) (UniProt P20309)", "Activity": "inactive"}
{"Molecule": "O=C(O)c1cn(Cc2ccc(-n3cccn3)cc2)c2cnccc2c1=O", "System under test": "Muscarinic acetylcholine receptor M3 (Homo sapiens) (UniProt P20309)", "Activity": "inactive"}
{"Molecule": "O=C(O)c1cn(Cc2ccc(-n3ccnc3)cc2)c2ccsc2c1=O", "System under test": "Muscarinic acetylcholine receptor M3 (Homo sapiens) (UniProt P20309)", "Activity": "inactive"}
{"Molecule": "Cc1ccn(-c2ccc(Cn3cc(C(=O)O)c(=O)c4ccncc43)cc2)n1", "System under test": "Muscarinic acetylcholine receptor M3 (Homo sapiens) (UniProt P20309)", "Activity": "inactive"}
{"Molecule": "O=C(O)c1cn(Cc2ccc(-c3ccncc3)cc2)c2ccsc2c1=O", "System under test": "Muscarinic acetylcholine receptor M3 (Homo sapiens) (UniProt P20309)", "Activity": "inactive"}
{"Molecule": "O=C(O)c1cn(Cc2ccc(-c3ccccc3)cc2)c2ncncc2c1=O", "System under test": "Muscarinic acetylcholine receptor M3 (Homo sapiens) (UniProt P20309)", "Activity": "inactive"}
{"Molecule": "COc1ccc(-c2ccc(Cn3cc(C(=O)O)c(=O)c4sccc43)nc2)cn1", "System under test": "Muscarinic acetylcholine receptor M3 (Homo sapiens) (UniProt P20309)", "Activity": "inactive"}
{"Molecule": "O=C(O)c1cn(Cc2ccc(-n3cccn3)cc2)c2ncccc2c1=O", "System under test": "Muscarinic acetylcholine receptor M3 (Homo sapiens) (UniProt P20309)", "Activity": "inactive"}
{"Molecule": "O=C(O)c1cn(Cc2ccc(-c3ccsc3)cn2)c2ccsc2c1=O", "System under test": "Muscarinic acetylcholine receptor M3 (Homo sapiens) (UniProt P20309)", "Activity": "inactive"}

----------
The following compounds are shown together with reported fraction unbound values.
# Run description: Plasma protein binding in rat serum by equilibrium dialysis method
Measurement name: fraction unbound

{"Molecule": "O=C(O)c1cn(Cc2ccc(-c3ccccc3)cc2)c2nccnc2c1=O", "Endpoint value": 0.023}
{"Molecule": "O=C(O)c1cn(Cc2ccc(-c3ccccc3)cc2)c2ncccc2c1=O", "Endpoint value": 0.003}
{"Molecule": "Cc1ccn(-c2ccc(Cn3cc(C(=O)O)c(=O)c4ccncc43)cc2)n1", "Endpoint value": 0.011}
{"Molecule": "Nc1cccc(-c2ccc(Cn3cc(C(=O)O)c(=O)c4sccc43)nc2)c1", "Endpoint value": 0.099}
{"Molecule": "O=C(O)c1cn(Cc2ccc(-c3ccccc3)cc2)c2ccsc2c1=O", "Endpoint value": 0.008}
